- System: CAKI-1 renal
- method_description: NCI-60 one-dose screen, 48 h
- condition_parameters: 10 µM unless noted
Compounds without any hit were thinned out: in the full panel of roughly 83,000, 20% have a hit. The source made the active and inactive calls. Rule for the calls: active = growth percent below 10; inactive = the rest.
Thanks in advance; please answer with one of these: active, inactive

Dear all, I need the recorded test outcome for `COc1ccc(C(=O)COc2ccc(/C=C3\Oc4ccc5ccccc5c4C3=O)cc2)cc1` , thank you.
inactive

Next entry: `CCC(=O)Nc1cc2c(cc1Cl)-c1ccccc1C2`
inactive

Next entry: `CCOc1cc(/C=C/C(=O)C(C(=O)/C=C/c2ccc(OC(=O)CNc3nc4ccccc4[nH]3)c(OCC)c2)C(=O)CNc2nc3ccccc3[nH]2)ccc1OC(=O)CNc1nc2ccccc2[nH]1`
active

Next entry: `C(#Cc1ccccc1C#Cc1ccccn1)c1ccc(OCCCCCCOc2ccc(C#Cc3ccccc3C#Cc3ccccn3)cc2)cc1`
inactive

Next entry: Cc1ccc(C(NC(=O)c2ccccc2)c2ccc3cccnc3c2O)cc1 (centres undefined)
active

* * *

- System: COLO 205 colon
- method_description: NCI-60 one-dose screen, 48 h
- condition_parameters: 10 µM unless noted
The panel holds about 83,000 compounds, 20% with a hit somewhere; the sample as a whole holds those more often. Calls of active or inactive are those of the source. The calls were made as follows: active = growth percent below 10; inactive = the rest.
Thanks in advance; please answer with one of these: active, inactive

Take a look at these entries with their results.
[[record]]
compound = "O=c1c2c(=NCCCN3CCCC3)cc3c(=O)n(CCCN4CCCC4)c(=O)c4c(NCCCN5CCCC5)cc(c(O)n1CCCN1CCCC1)c2c4-3"
assigned_category = "active"

[[record]]
compound = "O=C(/C=C/c1cccc(Nc2ccnc3cc(Cl)ccc23)c1)c1ccc(Cl)cc1"
assigned_category = "inactive"

[[record]]
compound = "O=C(N/N=C/c1cccc(O)c1)c1ccc(C(F)(F)F)nc1Nc1cccc(C(F)(F)F)c1"
assigned_category = "active"

[[record]]
compound = "O=C(CN1CCN(c2ccc(Cl)cc2)CC1)N1CCN(c2nnc(-c3ccc(Cl)cc3)c(-c3ccc(Cl)cc3)n2)CC1"
assigned_category = "inactive"

[[record]]
compound = "c1ccc2c(-c3nc4ccccc4[nH]3)cccc2c1"
assigned_category = "inactive"


Dear all, I need the recorded test outcome for COc1cc(/C=C2\CN(C)CC3=C2Nc2nc(SC)[nH]c(=O)c2C3c2cc(OC)c(OC)c(OC)c2)cc(OC)c1OC (stereo unspecified) , thank you.
inactive

Next entry: `COc1ccc2cc(-c3nc4ccccc4[nH]3)c(=O)oc2c1`
inactive

Next entry: `CN1CCC[C@@H]1CCO[C@](C)(c1ccccc1)c1ccc(Cl)cc1`
inactive

Next entry: O=C(NC1CCS(=O)(=O)C1)c1ccc(C(=O)c2ccccc2)cc1 (stereo unspecified)
inactive

Next entry: `COC(=O)c1cc2oc(/C=N\NC(=O)c3cc4oc(C)c(C)c4[nH]3)cc2[nH]1`
inactive

Next entry: `NS(=O)(=O)c1ccc(-n2nc(-c3ccc(Br)cc3)ccc2=O)cc1`
inactive

Next entry: CC(=O)OC1Oc2cc(C)c(C)cc2-c2oc(=O)c(-c3ccccc3)cc21 (stereo unspecified)
active

Next entry: `O=C1C=CC(=O)N1c1ccccn1`
inactive

Next entry: Nc1nc(NC2CC2)c2ncn(C3C=CC(CO)C3)c2n1 (stereo unspecified)
inactive

Next entry: COc1cc(C2CC(c3ccc(C)cc3)=NN2C=O)ccc1OCCN(C)C (stereo unspecified)
inactive

Next entry: `O=C(Nc1ccccc1S)c1ccccc1`
inactive

Next entry: `O=Cc1ncc(-c2ccc(C(F)(F)F)cc2)c(NC2CCCCCC2)n1`
active

Next entry: `Oc1c(Cl)cc(Cl)c(Cl)c1Cc1c(O)c(Cl)cc(Cl)c1Cl`
inactive

Next entry: C#C[C@]1(O)CCC2C3CCc4cc(O)ccc4C3CC[C@@]21C (stereo partly specified)
inactive

Next entry: `CCN(Cc1cccc(S(=O)(=O)[O-])c1)c1ccc(C(=C2C=CC(=[N+](CC)Cc3cccc(S(=O)(=O)O)c3)C=C2)c2ccccc2S(=O)(=O)O)cc1`
inactive

Next entry: `Nc1ccc(N=Nc2ccccc2)cc1[N+](=O)[O-]`
inactive

* * *

- Tested on: HT29 colon
- method_description: NCI-60 one-dose screen, 48 h
- condition_parameters: 10 µM unless noted
- Description: Growth inhibition of the HT29 human tumor cell line is measured as a screen for anti-cancer activity. Cells are grown in 96 well plates and exposed to the test compound for 48 hours. Compounds are tested at a single concentration, which is 10^-5 M for most compounds. The reported endpoint is percent growth (GI% or GIPRCNT), where numbers from 0 - 100% represent growth inhibition, and numbers from -100% - 0 represent cell death. For example, a value of 40 represents 60% growth inhibition. […]
About 83,000 compounds went through this panel and 20% of them were active in at least one assay; those are over-represented in the sample as a whole. Activity calls are given as the source filed them. The calls were made as follows: active = growth percent below 10; inactive = the rest.
Thanks in advance; please answer with one of these: 1 (active), -1 (inactive)

Take a look at these entries with their results.
[[record]]
molecule = "CC1CC=CCC1C1OCC(C)(C)CO1 (stereo unspecified)"
assigned_category = -1

[[record]]
molecule = "O=C1/C(=C/c2ccccc2Cl)CCc2ccccc21"
assigned_category = -1

[[record]]
molecule = "CC(=O)N1N=C(c2ccc(Nc3nc(NCCO)nc(NCCO)n3)cc2)CC1c1ccc(Cl)cc1 (stereo unspecified)"
assigned_category = -1


Dear all, I need the recorded test outcome for `O=Cc1ncc(-c2ccc(C(F)(F)F)cc2)c(NC2CCCCCC2)n1` , thank you.
1

Next entry: `Nc1ccc2c(c1)C(=O)c1cc(Cl)c(Cl)cc1-2`
-1

Next entry: `COc1ccc(/C=C/C(=O)c2cccc(NS(C)(=O)=O)c2)cc1`
-1

* * *

- System: COLO 205 colon
- method_description: NCI-60 one-dose screen, 48 h (100 = growth as untreated, 0 = no growth, -100 = all killed)
- condition_parameters: 10 µM unless noted
About 83,000 compounds went through this panel and 20% of them were active in at least one assay; those are over-represented in the sample as a whole.
Overview of recorded growth for various molecules
Answer in %, number only, no unit symbol.

Which growth is reported for this molecule? `CCCCCCCCCCNCCSS(=O)(=O)O`
116

Next entry: `Nc1ccc2c(c1)C(=O)c1cc(Cl)c(Cl)cc1-2`
83.5

Next entry: CC1CN(CC(O)c2ccc(Br)cc2)CCO1 (stereo unspecified)
98.1

* * *

Overview of recorded growth for various molecules
- Test system: NCI-H226 lung
- method_description: NCI-60 one-dose screen, 48 h (100 = growth as untreated, 0 = no growth, -100 = all killed)
- condition_parameters: 10 µM unless noted
This is part of a sample that, as a whole, favours compounds with a hit. Of some 83,000 tested, about 20% had one in any assay.
Answer in %, number only, no unit symbol.

Some molecules with recorded growth:
[[record]]
molecule = "O=C(/C=C/c1cccc(O)c1)c1cccc(-n2cc(-c3ccccc3)[nH]c2=O)c1"
measured_number = 3.79

[[record]]
molecule = "Cc1ccc2c(c1)C(=O)/C(=C\\Nc1ccc(C(N)=O)cc1)C(O)O2 (stereo not given)"
measured_number = 154

[[record]]
molecule = "COc1ccc(CNC(=O)c2c(C)n([O-])c3ccc(OC)cc3[n+]2=O)cc1"
measured_number = 110

[[record]]
molecule = "O=C1c2cc3c(cc2-c2c1c1ccc(Cl)cc1c(=O)n2CCCNCCO)OCO3"
measured_number = -70.9


Then there is this molecule:
Which growth is reported for this molecule? `N#Cc1ncc(-c2ccc(C(F)(F)F)cc2)c(NC2CCCCCC2)n1`
35.1

* * *

- Tested on: LOX IMVI melanoma
- method_description: NCI-60 one-dose screen, 48 h
- condition_parameters: 10 µM unless noted
The panel holds about 83,000 compounds, 20% with a hit somewhere; the sample as a whole holds those more often. Active and inactive are the calls of the source. How the source made its calls: active means growth percent below 10; inactive means the rest.
Thanks in advance; please answer with one of these: true (1) = active, false (0) = inactive

[[record]]
molecule = "COc1cccc(C=Nc2cc(C(C)C)c(O)cc2C)c1O"
assigned_category = "false (0)"


Dear all, I need the recorded test outcome for C[N+]1(C)C2CC[C@@H]1CC(OC(=O)C(O)c1ccccc1)C2 (stereo not given in full) , thank you.
false (0)

Next entry: `CCOc1cc(/C=C/C(=O)CC(=O)/C=C/c2ccc(OC(=O)CNc3nc4ccc(OC)cc4s3)c(OCC)c2)ccc1OC(=O)CNc1nc2ccc(OC)cc2s1`
true (1)

Next entry: `CCCCCc1c(C)[nH]c(/C=C2\N=C(c3ccc[nH]3)C=C2Oc2ccccc2)c1C`
true (1)

Next entry: `N#Cc1c(-c2ccccc2)cc(-c2ccccc2)n(CC(=O)O)c1=O`
false (0)

Next entry: `O=C(/C=C/c1ccc([N+](=O)[O-])cc1)c1ccc2c3c(cccc13)CC2`
false (0)

Next entry: `CC(=O)c1nn(-c2ccccc2)c(=Nc2ccccc2)cc1C`
false (0)

Next entry: `COc1cccc(-c2nc3cc(NC(=O)c4ccc(Cl)c(C#N)c4)ccc3o2)c1`
false (0)

Next entry: `CSc1nc2nc3c(nc2c(=O)n1C)C(=O)c1ccccc1C3=O`
true (1)

Next entry: `Cc1ccc(-c2c3c(N)c4c(nc3nc3c2c(C)nn3-c2ccccc2)CCC4)cc1`
true (1)

Values were extracted from PubChem BioAssay (NCI).
